Target: human DGAT2 (Homo sapiens, UniProt Q96PD7)
Construct: made in house; host or cells: sf9 insect cells
Assay: DGAT enzyme inhibition test, hDGAT2 enzyme from sf9 insect cells (DGAT2 selectivity)
Assay type: biochemical
Conditions: 10 μM; enzyme from sf9 cells overexpressing hDGAT2; read-out: hDGAT-2 (sf9) inhibition rate(%)at 10 μM
MEASURED ENDPOINT: inhibition at 10 µM (%)

molecule_smiles=CC(C)N(NC(=O)c1ccc(F)cc1)C(=O)/C=C/c1cn(C(=O)OC(C)(C)C)c2ccccc12 measured_endpoint="inhibition at 10 µM" measurement_units=% prefix_operator== readout_number=28.9
molecule_smiles=CC(C)N(NC(=O)c1ccccc1)C(=O)/C=C/c1cn(C)c2ccccc12 measured_endpoint="inhibition at 10 µM" measurement_units=% prefix_operator=< readout_number=0
molecule_smiles=CC(C)N(NC(=O)c1cccc(OCC(N)=O)c1)C(=O)/C=C/c1cn(C(=O)OC(C)(C)C)c2ccccc12 measured_endpoint="inhibition at 10 µM" measurement_units=% prefix_operator=< readout_number=0
molecule_smiles=CC(C)N(NC(=O)c1ccccc1)C(=O)/C=C/c1cn(CC2CC2)c2ccccc12 measured_endpoint="inhibition at 10 µM" measurement_units=% prefix_operator=< readout_number=0
molecule_smiles=CC(C)N(NC(=O)c1cccc(Br)c1)C(=O)/C=C/c1cn(C(=O)OC(C)(C)C)c2ccccc12 measured_endpoint="inhibition at 10 µM" measurement_units=% prefix_operator== readout_number=3.9
molecule_smiles=CC(=O)n1cc(/C=C/C(=O)N(NC(=O)c2ccccc2)C(C)C)c2ccccc21 measured_endpoint="inhibition at 10 µM" measurement_units=% prefix_operator=< readout_number=0
molecule_smiles=CC(C)N(NC(=O)c1ccccc1)C(=O)/C=C/c1cn(Cc2ccccc2)c2ccccc12 measured_endpoint="inhibition at 10 µM" measurement_units=% prefix_operator== readout_number=5
molecule_smiles=COc1cccc(C(=O)NN(C(=O)/C=C/c2cn(C(=O)OC(C)(C)C)c3ccccc23)C(C)C)c1 measured_endpoint="inhibition at 10 µM" measurement_units=% prefix_operator== readout_number=0.3

====

Target: DGAT-1 (rat liver) (Rattus norvegicus, UniProt Q9ERM3)
Construct: microsomal protein isolated from rat
Sequence (Q9ERM3 1-498): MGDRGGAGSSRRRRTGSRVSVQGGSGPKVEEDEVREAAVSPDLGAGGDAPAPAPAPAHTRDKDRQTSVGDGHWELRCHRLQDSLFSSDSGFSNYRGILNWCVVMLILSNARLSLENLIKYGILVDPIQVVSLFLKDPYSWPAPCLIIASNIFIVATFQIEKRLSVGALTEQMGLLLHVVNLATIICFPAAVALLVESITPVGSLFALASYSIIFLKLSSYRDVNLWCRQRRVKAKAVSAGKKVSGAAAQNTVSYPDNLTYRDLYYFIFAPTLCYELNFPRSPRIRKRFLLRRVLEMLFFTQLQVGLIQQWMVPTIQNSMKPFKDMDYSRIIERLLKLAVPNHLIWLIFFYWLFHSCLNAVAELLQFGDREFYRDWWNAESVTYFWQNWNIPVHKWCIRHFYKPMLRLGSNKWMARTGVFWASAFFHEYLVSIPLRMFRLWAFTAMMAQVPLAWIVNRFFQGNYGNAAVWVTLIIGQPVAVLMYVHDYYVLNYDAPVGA
Assay: DGAT enzyme inhibition test, rat liver-derived DGAT enzyme
Conditions: rat liver microsomal protein
pIC50: −log10 of the molar value.
MEASURED ENDPOINT: pIC50

molecule_smiles=CC(C)N(NC(=O)c1ccccc1)C(=O)/C=C/c1cn(C(=O)c2ccccc2)c2ccccc12 prefix_operator== readout_number=6.15
molecule_smiles=CC(C)N(NC(=O)c1ccccc1)C(=O)/C=C/c1c[nH]c2ccccc12 prefix_operator== readout_number=4.48
molecule_smiles=COC(=O)COc1cccc(C(=O)NN(C(=O)/C=C/c2cn(C(=O)OC(C)(C)C)c3ccccc23)C(C)C)c1 prefix_operator== readout_number=4.69
molecule_smiles=CC(C)N(NC(=O)c1cccc(OCC(N)=O)c1)C(=O)/C=C/c1cn(C(=O)OC(C)(C)C)c2ccccc12 prefix_operator=< readout_number=4.00
molecule_smiles=CC(C)N(NC(=O)c1ccccc1)C(=O)/C=C/c1cn(C)c2ccccc12 prefix_operator== readout_number=5.03
molecule_smiles=CC(C)N(NC(=O)c1ccc(O)cc1)C(=O)/C=C/c1cn(C(=O)OC(C)(C)C)c2ccccc12 prefix_operator== readout_number=4.79
molecule_smiles=CC(C)N(NC(=O)c1ccccc1)C(=O)/C=C/c1cn(C(=O)CC(C)(C)C)c2ccccc12 prefix_operator== readout_number=5.85
molecule_smiles=CC(C)N(NC(=O)c1ccc(Br)cc1)C(=O)/C=C/c1cn(C(=O)OC(C)(C)C)c2ccccc12 prefix_operator== readout_number=5.04
molecule_smiles=CC(C)N(NC(=O)c1cccc(O)c1)C(=O)/C=C/c1cn(C(=O)OC(C)(C)C)c2ccccc12 prefix_operator== readout_number=4.65
molecule_smiles=CC(C)N(NC(=O)c1ccccc1)C(=O)/C=C/c1cn(Cc2ccccc2)c2ccccc12 prefix_operator== readout_number=5.62
molecule_smiles=CC(C)=CCn1cc(/C=C/C(=O)N(NC(=O)c2ccccc2)C(C)C)c2ccccc21 prefix_operator== readout_number=6.30
molecule_smiles=CC(=O)n1cc(/C=C/C(=O)N(NC(=O)c2ccccc2)C(C)C)c2ccccc21 prefix_operator== readout_number=4.65
molecule_smiles=CC(C)N(NC(=O)c1ccccc1)C(=O)/C=C/c1cn(C(=O)C(C)(C)C)c2ccccc12 prefix_operator== readout_number=5.47
molecule_smiles=CC(C)N(NC(=O)c1ccccc1)C(=O)CCc1cn(Cc2ccccc2)c2ccccc12 prefix_operator== readout_number=4.54
molecule_smiles=COc1cccc(C(=O)NN(C(=O)/C=C/c2cn(C(=O)OC(C)(C)C)c3ccccc23)C(C)C)c1 prefix_operator== readout_number=5.68
molecule_smiles=CC(C)(C)OC(=O)n1cc(/C=C/C(=O)NNC(=O)c2ccccc2)c2ccccc21 prefix_operator== readout_number=4.58
molecule_smiles=CC(C)N(NC(=O)c1ccccn1)C(=O)/C=C/c1cn(C(=O)OC(C)(C)C)c2ccccc12 prefix_operator== readout_number=5.12
molecule_smiles=CC(C)N(NC(=O)c1cccc(F)c1)C(=O)/C=C/c1cn(C(=O)OC(C)(C)C)c2ccccc12 prefix_operator== readout_number=6.40
molecule_smiles=CC(C)N(NC(=O)c1cccnc1)C(=O)/C=C/c1cn(C(=O)OC(C)(C)C)c2ccccc12 prefix_operator== readout_number=5.41
molecule_smiles=CC(C)N(NC(=O)c1ccccc1)C(=O)CCc1cn(C(=O)OC(C)(C)C)c2ccccc12 prefix_operator== readout_number=5.07
molecule_smiles=CC(C)(C)OC(=O)n1cc(/C=C/C(=O)NNS(=O)(=O)c2ccccc2)c2ccccc21 prefix_operator== readout_number=4.08
molecule_smiles=CC(C)N(NC(=O)c1ccccc1)C(=O)CCc1c[nH]c2ccccc12 prefix_operator== readout_number=4.50
molecule_smiles=CC(C)N(NC(=O)c1ccccc1)C(=O)/C=C/c1cn(C2CC2)c2ccccc12 prefix_operator== readout_number=5.72
molecule_smiles=CC(C)N(NC(=O)c1ccc(OCCN2CCOCC2)cc1)C(=O)/C=C/c1cn(C(=O)OC(C)(C)C)c2ccccc12 prefix_operator== readout_number=4.93
molecule_smiles=COCCOc1cccc(C(=O)NN(C(=O)/C=C/c2cn(C(=O)OC(C)(C)C)c3ccccc23)C(C)C)c1 prefix_operator== readout_number=5.59
molecule_smiles=CC(C)N(NC(=O)c1cccc(OCCN2CCOCC2)c1)C(=O)/C=C/c1cn(C(=O)OC(C)(C)C)c2ccccc12 prefix_operator== readout_number=5.60
molecule_smiles=CC(C)N(NC(=O)c1ccccc1)C(=O)/C=C/c1cn(CC2CC2)c2ccccc12 prefix_operator== readout_number=5.54
molecule_smiles=CC(C)N(NC(=O)c1ccccc1)C(=O)/C=C/c1cn(C(=O)OC(C)(C)C)c2ccccc12 prefix_operator== readout_number=5.96
molecule_smiles=CC(C)N(NC(=O)c1cccc(Br)c1)C(=O)/C=C/c1cn(C(=O)OC(C)(C)C)c2ccccc12 prefix_operator== readout_number=5.77
molecule_smiles=COc1ccc(C(=O)NN(C(=O)/C=C/c2cn(C(=O)OC(C)(C)C)c3ccccc23)C(C)C)cc1 prefix_operator== readout_number=5.06
molecule_smiles=CC(C)N(NC(=O)c1ccc(Cl)cc1)C(=O)/C=C/c1cn(C(=O)OC(C)(C)C)c2ccccc12 prefix_operator== readout_number=5.55
molecule_smiles=CC(C)N(NC(=O)c1cccc(OCC(=O)O)c1)C(=O)/C=C/c1cn(C(=O)OC(C)(C)C)c2ccccc12 prefix_operator== readout_number=4.34

====

This section presents compounds with their documented inhibition at 10 µM values.
Biological target: human DGAT2 (Homo sapiens)
Construct: made in house; host or cells: sf9 insect cells
Sequence (Q96PD7 1-388): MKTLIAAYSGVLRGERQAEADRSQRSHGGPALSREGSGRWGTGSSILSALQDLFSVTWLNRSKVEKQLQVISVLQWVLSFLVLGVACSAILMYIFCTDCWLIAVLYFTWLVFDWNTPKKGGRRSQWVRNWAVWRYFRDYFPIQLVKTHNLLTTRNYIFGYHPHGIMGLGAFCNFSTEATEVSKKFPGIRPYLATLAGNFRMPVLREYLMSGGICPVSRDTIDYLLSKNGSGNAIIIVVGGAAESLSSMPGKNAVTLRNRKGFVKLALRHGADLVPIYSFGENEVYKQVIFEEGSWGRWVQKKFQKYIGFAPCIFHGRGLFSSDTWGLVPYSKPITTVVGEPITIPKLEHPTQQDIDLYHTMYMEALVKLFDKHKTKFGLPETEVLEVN
Experiment: DGAT enzyme inhibition test, hDGAT2 enzyme from sf9 insect cells (DGAT2 selectivity)
Format: biochemical
Details: 10 μM; enzyme from sf9 cells overexpressing hDGAT2; read-out: hDGAT-2 (sf9) inhibition rate(%)at 10 μM
MEASURED ENDPOINT: inhibition at 10 µM (%)

molecule_smiles=CC(C)CCn1cc(/C=C/C(=O)N(NC(=O)c2ccc(F)cc2)C(C)C)c2ccccc21 assayed_target="human DGAT2 (Homo sapiens)" prefix_operator== readout_number=64
molecule_smiles=CC(C)N(NC(=O)c1ccncc1)C(=O)/C=C/c1cn(C(=O)OC(C)(C)C)c2ccccc12 assayed_target="human DGAT2 (Homo sapiens)" prefix_operator== readout_number=0.6
molecule_smiles=Cc1ccc(C(=O)NN(C(=O)/C=C/c2cn(C(=O)OC(C)(C)C)c3ccccc23)C(C)C)cc1 assayed_target="human DGAT2 (Homo sapiens)" prefix_operator== readout_number=22.1
molecule_smiles=CC(C)N(NC(=O)c1ccc(O)cc1)C(=O)/C=C/c1cn(C(=O)OC(C)(C)C)c2ccccc12 assayed_target="human DGAT2 (Homo sapiens)" prefix_operator=< readout_number=0
molecule_smiles=CC(C)CCn1cc(/C=C/C(=O)N(NC(=O)c2cccc(F)c2)C(C)C)c2ccccc21 assayed_target="human DGAT2 (Homo sapiens)" prefix_operator== readout_number=42.3
molecule_smiles=COCCOc1cccc(C(=O)NN(C(=O)/C=C/c2cn(C(=O)OC(C)(C)C)c3ccccc23)C(C)C)c1 assayed_target="human DGAT2 (Homo sapiens)" prefix_operator== readout_number=8.3
molecule_smiles=CC(C)=CCn1cc(/C=C/C(=O)N(NC(=O)c2ccc(F)cc2)C(C)C)c2ccccc21 assayed_target="human DGAT2 (Homo sapiens)" prefix_operator== readout_number=28
molecule_smiles=CC(C)N(NC(=O)c1cccnc1)C(=O)/C=C/c1cn(C(=O)OC(C)(C)C)c2ccccc12 assayed_target="human DGAT2 (Homo sapiens)" prefix_operator=< readout_number=0
molecule_smiles=CC(C)N(NC(=O)c1cccc(OCCN2CCOCC2)c1)C(=O)/C=C/c1cn(C(=O)OC(C)(C)C)c2ccccc12 assayed_target="human DGAT2 (Homo sapiens)" prefix_operator=< readout_number=0
molecule_smiles=CC(C)N(NC(=O)c1ccc(Cl)cc1)C(=O)/C=C/c1cn(C(=O)OC(C)(C)C)c2ccccc12 assayed_target="human DGAT2 (Homo sapiens)" prefix_operator=< readout_number=0
molecule_smiles=CC(C)=CCn1cc(/C=C/C(=O)N(NC(=O)c2ccccc2)C(C)C)c2ccccc21 assayed_target="human DGAT2 (Homo sapiens)" prefix_operator== readout_number=1.2
molecule_smiles=CC(C)N(NC(=O)c1ccccc1)C(=O)CCc1cn(C(=O)OC(C)(C)C)c2ccccc12 assayed_target="human DGAT2 (Homo sapiens)" prefix_operator=< readout_number=0
molecule_smiles=CC(C)=CCn1cc(/C=C/C(=O)N(NC(=O)c2cccc(F)c2)C(C)C)c2ccccc21 assayed_target="human DGAT2 (Homo sapiens)" prefix_operator== readout_number=18.5
molecule_smiles=COc1ccc(C(=O)NN(C(=O)/C=C/c2cn(C(=O)OC(C)(C)C)c3ccccc23)C(C)C)cc1 assayed_target="human DGAT2 (Homo sapiens)" prefix_operator=< readout_number=0
molecule_smiles=CCCn1cc(/C=C/C(=O)N(NC(=O)c2cccc(F)c2)C(C)C)c2ccccc21 assayed_target="human DGAT2 (Homo sapiens)" prefix_operator== readout_number=32.4
molecule_smiles=CC(C)=CCn1cc(/C=C/C(=O)N(NC(=O)c2ccc(C)cc2)C(C)C)c2ccccc21 assayed_target="human DGAT2 (Homo sapiens)" prefix_operator== readout_number=37.1
